B1: POU domain, class 4, transcription factor 2, residues 256 to 327; numbered along this chain, Q12837 (parent)
chain: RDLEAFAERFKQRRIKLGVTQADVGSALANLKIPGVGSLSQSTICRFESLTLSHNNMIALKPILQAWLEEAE

- Variants of: B1
- assay: abundance fitness (aPCA) (normalised: wild type 0, dead -1); higher = more abundant; growth selection in yeast, the domain comes from the species named
- test-parameters: Homo sapiens
Recorded abundance fitness for the following variants
Write the number on its own, no unit after it.

Use these answered entries as a reference point.
>>> df
   variant_string  readout_value
0            W67Q          0.108
1            S38H          0.104
2            S26R          0.062
3            G35C         -0.512
4            L68N         -0.232

Enquiry: Query (variant): A71L ; field requested: abundance fitness
Return: -0.433

Enquiry: # input variant: V24Q ; wanted: its abundance fitness
Return: -1.02
